molecular target: T1, human EGFRvIII-hFc protein (human, UniProt P00533 25-645); test: ELISA, EGFRvIII-hFc coated
T1 construct: extracellular domain; also called immunogen A; hFc-tagged EGFRvIII protein; not shown: human IgG Fc fragment (hFc) of the pCpC vector
Reported Maximum OD450 value values are given for each entry in this list.
Your answer is read as OD450, so omit the unit and give the number.

1. Humanized antibody h63A10A7-19 (antibody, human IgG1, V domains shown, also called VH-g6/VL-g4) VH: QVQLVQSGAEVKKPGASVKVSCKASGYTFISFTMHWVKQRPGQGLEWMGYINPNSGYTKYNQKFKDKATMTRDTSTSTVYMELSSLRSEDTAVYYCTRGGGRGFAYWGQGTLVTVSS VL: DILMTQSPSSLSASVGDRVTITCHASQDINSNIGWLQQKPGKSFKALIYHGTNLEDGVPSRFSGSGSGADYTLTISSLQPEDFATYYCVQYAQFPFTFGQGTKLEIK = 3.63
2. Humanized antibody h63A10A7-21 (antibody, human IgG1, V domains shown, also called VH-g8/VL-g4) VH: QVQLVQSGAEVKKPGASVKVSCKASGYTFISFTMHWVKQRPGQGLEWIGYINPNSGYTKYNQKFKDRVTLTRDTSTSTVYMELSSLRSEDTAVYYCTRGGGRGFAYWGQGTLVTVSS VL: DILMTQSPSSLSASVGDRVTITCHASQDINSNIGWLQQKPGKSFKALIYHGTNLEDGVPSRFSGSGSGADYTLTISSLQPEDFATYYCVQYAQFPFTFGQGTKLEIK = 3.6

Consider the additional binder presented here.
Which Maximum OD450 value value belongs to Humanized antibody h75G7C6-10 (antibody, human IgG1, V domains shown, also called VH-g1/VL-g1) VH: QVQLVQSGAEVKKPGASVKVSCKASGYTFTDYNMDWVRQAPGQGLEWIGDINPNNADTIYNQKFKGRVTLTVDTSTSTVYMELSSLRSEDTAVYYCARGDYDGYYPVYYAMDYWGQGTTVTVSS VL: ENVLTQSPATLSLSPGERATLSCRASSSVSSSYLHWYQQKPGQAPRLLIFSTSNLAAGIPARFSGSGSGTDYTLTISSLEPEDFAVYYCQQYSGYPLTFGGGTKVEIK ?
2.98
